Numbers sourced from patent US20240189408A1.

# procedure text: LNP size and polydispersity by DLS (Malvern Panalytical)
# Format: physicochemical
# details: LNP size, mRNA LNPs of Table 18
We begin with a simple list: items and their reported Z-avg..

>  <molecule>
ARK005: mRNA: SP + WP_011033493.1 (Methanosarcina mazei) + TM/C; SEQ ID NO: 16680 (nucleic acid, listed as DNA) ATGTTCGTGTTCCTCGTGCTCCTGCCCCTCGTCTCCAGCCAGTGCGTGTACCTCATGACGGTGGTGCTCGGACACCCATTCCCGCTGACACCCTGGTACATCTGGCTGGGCTTCATCGCAGGACTGATCGCCATCGTCATGGTCACCATAATGCTCTGTTGCATGACCTCCTGCTGTAGCTGCCTGAAAGGCTGTTGCAGCTGCGGGAGCTGCTGCAAATTCGACGAAGACGATAGCGAACCTGTGCTCAAAGGGGTGAAGTTGCATTACACATAGTGA

>  <Z-avg.>
78.82 nm·days

$$$$

The record that follows has no Z-avg. shown yet.
I'd like to know its Z-avg.. The molecule in question is ARK003: mRNA: SP + WP_019264904.1 (Methanobrevibacter smithii) + TM/C; SEQ ID NO: 16678 (nucleic acid, listed as DNA) ATGTTCGTGTTCCTCGTGCTCCTGCCCCTCGTCTCCAGCCAGTGCGTGTACCTCATGACCATACCACTGAACGGCACCCCACTCCACGCCTTCCCACTGCCACCCTGGTACATCTGGCTGGGCTTCATCGCAGGACTGATCGCCATCGTCATGGTCACCATAATGCTCTGTTGCATGACCTCCTGCTGTAGCTGCCTGAAAGGCTGTTGCAGCTGCGGGAGCTGCTGCAAATTCGACGAAGACGATAGCGAACCTGTGCTCAAAGGGGTGAAGTTGCATTACACATAGTGA
78.82 nm·days
